Each recorded value in this set is attributed to patent US20240368243A1.

- assayTarget: … (SEQ ID NO: 1)-HLA-A*02 complex presented on antigen positive cancer cells (human)
- methodSummary: cell-based or functional assay
property: EC50 (mel624), IFN-γ ELISPOT, activation of redirected T cells (nM)
Report only the number, with the unit nM understood.

*Q* Value lookup for EC50 (mel624), IFN-γ ELISPOT, activation of redirected T cells; key = ImmTAC molecule comprising a79 (SEQ ID NO: 7) and b71 (SEQ ID NO: 15) (TCR, part only; not given: anti-CD3 scFv, linker, TCR constants, part only) TCR alpha, part: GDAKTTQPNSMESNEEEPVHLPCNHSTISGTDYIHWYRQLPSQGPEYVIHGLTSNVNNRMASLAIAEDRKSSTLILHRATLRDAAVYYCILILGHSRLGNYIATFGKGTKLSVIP TCR beta, part: DGGITQSPKYLFRKEGQNVTLSCEQNLNHDAMYWYRQDPGQGLRLIYYSQIMGDEQKGDIAEGYSVSREKKESFPLTVTSAQKNPTAFYLCASSWWTGGSAPIYFGPGTRLTVT
*A* 0.0318

*Q* Try ImmTAC molecule comprising a28 (SEQ ID NO: 6) and b75 (SEQ ID NO: 20) (TCR, part only; not given: anti-CD3 scFv, linker, TCR constants, part only) TCR alpha, part: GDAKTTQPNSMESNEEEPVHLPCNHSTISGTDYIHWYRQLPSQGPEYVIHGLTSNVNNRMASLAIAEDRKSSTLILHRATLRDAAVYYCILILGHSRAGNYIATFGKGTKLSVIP TCR beta, part: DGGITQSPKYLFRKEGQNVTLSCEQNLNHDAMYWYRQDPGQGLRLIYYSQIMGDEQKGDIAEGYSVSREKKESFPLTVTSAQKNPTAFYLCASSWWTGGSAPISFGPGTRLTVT next.
*A* 0.0139

*Q* Try ImmTAC molecule comprising a79 (SEQ ID NO: 7) and b66 (SEQ ID NO: 23) (TCR, part only; not given: anti-CD3 scFv, linker, TCR constants, part only) TCR alpha, part: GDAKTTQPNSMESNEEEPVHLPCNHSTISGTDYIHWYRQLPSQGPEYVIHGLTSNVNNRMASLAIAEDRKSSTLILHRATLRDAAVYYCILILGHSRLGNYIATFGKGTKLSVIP TCR beta, part: DGGITQSPKYLFRKEGQNVTLSCEQNLNHDAMYWYRQDPGQGLRLIYYSQIMGDEQKGDIAEGYSVSREKKESFPLTVTSAQKNPTAFYLCASSPWTGGSAPIRFGPGTRLTVT next.
*A* 0.0167
